- test.name: label from the status in PepcDB records
quantity.kind: protein production

1. TAANAVASRVGAPLGHDYAVLSLSDRLKPWDVVAQRISAVASADMAFAVYNPASKSRTWQVAAMRDLVLEHRSPDTPVIIGRDVAGAQESVRVVRLADLDPAEIDMRCLLIVGSSMTTVVENEHGTRVFTPRRYPG    failed
2. MCTIFKVNGKIHIKELISSIVIAEGVGALSGFLSMSNVKNYSNLKKPFFSPPGFIFPIVWVILYFLMAVAAYRIWVIGKEESKDVKKALVLYAVQLLFNFLWSIIFFKFNCYGAAFIELLILLFFILCATFQFHKHDKVAAFLMIPYILWVSFAGILNFAIWFLNRNSST    failed
3. MNPPDISVLIVSFNTRDLLRRCLASLRDQAGGTGIETIVVDNASRDGSADMVEAEFPDVRLIRSPVNLGFGNANNLAFTQSRGRYLVLLNSDACLAPGLLDAASKRMDACPDVGMAGGRLVGPEGGWQPSARMFPSLLNEFLVLSGLAHRYPKSRLFGRFDRTWADPSEEAGVDWVPGAFAILRRDLIDRIGFFDPRFFLYYEEVDLCRRIRAAGCKIMYWPELVITHLGGESAKTLSDMEFSSHASQLTLWRMRSQALYYRKWHGLALAWSAKTLEQLWHWLRALRHRRSAPAKAHDSEALIRLWNRAWKETEGGRVSPPQPWLEHHHHHH    failed

This collection of values is drawn from a protein production outcome set (Wang et al. 2014).
